Cited source: patent US5618726A

Tested on: Phanerochaete chrysosporium
assay overview: Substrate removal / decolorization by P. chrysosporium culture
Format: cell-based
condition: initial concn 300 ppm, 14 days
reported endpoint: % Decolorization, P. chrysosporium

Nc1ccc(N=Nc2ccc(S(=O)(=O)O)cc2)cc1 [compound 30] ... 80%
COc1ccc(N=Nc2ccc(S(=O)(=O)O)cc2)cc1OC [compound 17] ... 74%
Cc1ccc(O)c(N=Nc2ccc(S(=O)(=O)O)cc2)c1 [compound 8] ... 49%
Cc1cc(N=Nc2ccc(S(=O)(=O)O)cc2)cc(C)c1O [compound 3] ... 97%
CCc1ccc(O)c(N=Nc2ccc(S(=O)(=O)O)cc2)c1 [compound 9] ... 86%
COc1ccc(N=Nc2ccc(S(=O)(=O)O)cc2)cc1 [compound 16] ... 55%
COc1cc(N=Nc2ccc(S(=O)(=O)O)cc2)ccc1O [compound 2] ... 94%
O=S(=O)(O)c1ccc(N=Nc2ccc(O)c(Cl)c2)cc1 [compound 13] ... 88%
CN(C)c1ccc(N=Nc2ccc(S(=O)(=O)O)cc2)cc1 [compound 14] ... 94%
O=S(=O)(O)c1ccc(N=Nc2cc(F)c(O)c(F)c2)cc1 [compound 12] ... 93%
CCN(CC)c1ccc(N=Nc2ccc(S(=O)(=O)O)cc2)cc1 [compound 15] ... 27%
COc1cc(C)cc(N=Nc2ccc(S(=O)(=O)O)cc2)c1O [compound 11] ... 34%
O=S(=O)(O)c1ccc(N=Nc2ccc(O)cc2)cc1 [compound 6] ... 18%
CCC(C)c1cc(N=Nc2ccc(S(=O)(=O)O)cc2)ccc1O (centres unmarked) [compound 10] ... 92%

====

Test system: S. diastaticus A13
Format: cell-based
condition: streptomyces diastaticus a13 culture, 336 h
Returns class 1 if the recorded Degradation (%) after Streptomyces cultivation, strain A13 is greater than or equal to 8%, and class 0 otherwise.

CCC(C)c1cc(N=Nc2ccc(S(=O)(=O)O)cc2)ccc1O (stereo not shown) ... class 0
Cc1cc(N=Nc2ccc(S(=O)(=O)O)cc2)cc(C)c1O ... class 1
CCN(CC)c1ccc(N=Nc2ccc(S(=O)(=O)O)cc2)cc1 ... class 0
O=S(=O)(O)c1ccc(N=Nc2ccc(O)c(Cl)c2)cc1 ... class 0
COc1cc(N=Nc2ccc(S(=O)(=O)O)cc2)ccc1O ... class 1

====

Tested on: Phanerochaete chrysosporium
assay overview: Substrate removal / decolorization by P. chrysosporium culture
Type: cell-based
condition: beginning concentration 200 ppm
Label YES when Concentration of substrate after ten days cultivation with P. chrysosporium < 10 ppm; otherwise NO.

CCC(C)c1cc(N=Nc2ccc(S(=O)(=O)O)cc2)ccc1O (stereo not shown) [compound 10] ... NO
Cc1cc(N=Nc2ccc(S(=O)(=O)O)cc2)cc(C)c1O [compound 3] ... YES
COc1cc(N=Nc2ccc(S(=O)(=O)O)cc2)cc(OC)c1O [compound 4] ... YES
COc1ccc(N=Nc2ccc(S(=O)(=O)O)cc2)cc1 [compound 16] ... NO
Cc1cc(N=Nc2ccc(S(=O)(=O)O)cc2)ccc1O [compound 5] ... NO
CN(C)c1ccc(N=Nc2ccc(S(=O)(=O)O)cc2)cc1 [compound 14] ... NO
O=S(=O)(O)c1ccc(N=Nc2cc(F)c(O)c(F)c2)cc1 [compound 12] ... YES

====

System: Phanerochaete chrysosporium
assay overview: Substrate removal / decolorization by P. chrysosporium culture
Type: cell-based
condition: initial concn 150 ppm, 14 days
Protocol: Environ. Microbiol., 1981, 42:290-296), with the addition of 75 mg adenine (6-aminopurine) and 27 mg L-phenylalanine-per-liter. This addition accelerated the growth of the fungus without inhibiting ligninase activity. […] […] Cultures were incubated at 37° C. for 7 to 15 days with shaking (250 rpm). Solid agar media were also employed.
Returns condition met if the recorded % Decolorization, P. chrysosporium is greater than or equal to 90%, and condition not met otherwise.

COc1cc(C)cc(N=Nc2ccc(S(=O)(=O)O)cc2)c1O ... condition not met
Cc1cc(N=Nc2ccc(S(=O)(=O)O)cc2)cc(C)c1O ... condition met
COc1ccc(N=Nc2ccc(S(=O)(=O)O)cc2)cc1OC ... condition not met
COc1cc(N=Nc2ccc(S(=O)(=O)O)cc2)ccc1O ... condition met
Cc1cc(O)c(N=Nc2ccc(S(=O)(=O)O)cc2)cc1C ... condition not met
O=S(=O)(O)c1ccc(N=Nc2ccc(O)cc2)cc1 ... condition not met
O=S(=O)(O)c1ccc2c(N=Nc3ccccc3)c(O)ccc2c1 ... condition met
Nc1ccc(N=Nc2ccc(S(=O)(=O)O)cc2)cc1 ... condition not met
COc1ccc(N=Nc2ccc(S(=O)(=O)O)cc2)cc1 ... condition not met
COc1cc(N=Nc2ccc(N=Nc3ccc(S(=O)(=O)O)cc3)cc2S(=O)(=O)O)ccc1O ... condition met

====

target of assay: UniProtKB P00433
Sequence (P00433 31-338): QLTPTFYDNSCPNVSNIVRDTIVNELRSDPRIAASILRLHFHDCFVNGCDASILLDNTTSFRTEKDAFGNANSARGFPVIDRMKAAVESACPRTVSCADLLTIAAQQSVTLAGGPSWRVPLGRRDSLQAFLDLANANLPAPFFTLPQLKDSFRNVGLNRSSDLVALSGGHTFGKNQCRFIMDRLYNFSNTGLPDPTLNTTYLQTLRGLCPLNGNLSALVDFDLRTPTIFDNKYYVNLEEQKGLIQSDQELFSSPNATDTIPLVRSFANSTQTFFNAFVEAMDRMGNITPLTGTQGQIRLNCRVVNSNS
assay overview: Oxidation of azo dyes by horseradish peroxidase preparation
Type: biochemical
condition: pH 8, 37° C., H2O2
reported endpoint: Oxidation rate of azo dyes, Horseradish peroxidase (μmoles per minute per ml)

O=S(=O)(O)c1ccc(N=Nc2ccc(O)cc2)cc1 [compound 6] ... 0.47
Cc1cc(N=Nc2ccc(S(=O)(=O)O)cc2)ccc1O [compound 5] ... 11.94
O=S(=O)(O)c1ccc(N=Nc2c(O)ccc3ccccc23)cc1 [compound 31] ... 0.52
Nc1ccc(N=Nc2ccc(S(=O)(=O)O)cc2)cc1S(=O)(=O)O [compound 18] ... 0.12
CCc1ccc(O)c(N=Nc2ccc(S(=O)(=O)O)cc2)c1 [compound 9] ... 0.20

====

Parameter: Concentration of substrate after ten days cultivation with P. chrysosporium. Scope: all listed entries.
Test system: Phanerochaete chrysosporium
assay overview: Substrate removal / decolorization by P. chrysosporium culture
Type: cell-based
condition: beginning concentration 100 ppm
reported endpoint: Concentration of substrate after ten days cultivation with P. chrysosporium (ppm)

CCN(CC)c1ccc(N=Nc2ccc(S(=O)(=O)O)cc2)cc1 ... 1.901
COc1cc(N=Nc2ccc(S(=O)(=O)O)cc2)ccc1O ... 2.493
O=S(=O)(O)c1ccc(N=Nc2ccc(O)c(Cl)c2)cc1 ... 7.734
COc1cc(N=Nc2ccc(S(=O)(=O)O)cc2)cc(OC)c1O ... 1.637
COc1cc(C)cc(N=Nc2ccc(S(=O)(=O)O)cc2)c1O ... 6.795
Nc1ccc(N=Nc2ccc(S(=O)(=O)O)cc2)cc1S(=O)(=O)O ... 8.387
CCC(C)c1cc(N=Nc2ccc(S(=O)(=O)O)cc2)ccc1O (centres unmarked) ... 8.135
CCc1ccc(O)c(N=Nc2ccc(S(=O)(=O)O)cc2)c1 ... 81.911
O=S(=O)(O)c1ccc(N=Nc2cc(F)c(O)c(F)c2)cc1 ... 2.368
Cc1cc(N=Nc2ccc(S(=O)(=O)O)cc2)ccc1O ... 6.084
O=S(=O)(O)c1ccc(N=Nc2ccc(O)cc2)cc1 ... 12.909
Cc1cc(N=Nc2ccc(S(=O)(=O)O)cc2)cc(C)c1O ... 0.358
COc1ccc(N=Nc2ccc(S(=O)(=O)O)cc2)cc1OC ... 29.803
CN(C)c1ccc(N=Nc2ccc(S(=O)(=O)O)cc2)cc1 ... 4.411
COc1ccc(N=Nc2ccc(S(=O)(=O)O)cc2)cc1 ... 67.801
Cc1ccc(O)c(N=Nc2ccc(S(=O)(=O)O)cc2)c1 ... 16.079
Cc1cc(O)c(N=Nc2ccc(S(=O)(=O)O)cc2)cc1C ... 62.893

====

System: Phanerochaete chrysosporium
assay overview: Substrate removal / decolorization by P. chrysosporium culture
Type: cell-based
condition: beginning concentration 150 ppm
The class of a record is decided solely by its measured Concentration of substrate after ten days cultivation with P. chrysosporium; consult lower level = under 10 ppm, middle level = from 10 ppm up to 30 ppm, upper level = 30 ppm and over

COc1cc(C)cc(N=Nc2ccc(S(=O)(=O)O)cc2)c1O ... middle level
Cc1cc(N=Nc2ccc(S(=O)(=O)O)cc2)cc(C)c1O ... lower level
O=S(=O)(O)c1ccc(N=Nc2cc(F)c(O)c(F)c2)cc1 ... upper level
COc1ccc(N=Nc2ccc(S(=O)(=O)O)cc2)cc1OC ... upper level
Cc1cc(O)c(N=Nc2ccc(S(=O)(=O)O)cc2)cc1C ... upper level
Nc1ccc(N=Nc2ccc(S(=O)(=O)O)cc2)cc1S(=O)(=O)O ... middle level
O=S(=O)(O)c1ccc(N=Nc2ccc(O)c(Cl)c2)cc1 ... middle level
COc1ccc(N=Nc2ccc(S(=O)(=O)O)cc2)cc1 ... upper level
CCC(C)c1cc(N=Nc2ccc(S(=O)(=O)O)cc2)ccc1O (stereo not drawn) ... middle level
COc1cc(N=Nc2ccc(S(=O)(=O)O)cc2)cc(OC)c1O ... lower level
O=S(=O)(O)c1ccc2c(N=Nc3ccccc3)c(O)ccc2c1 ... lower level
CCN(CC)c1ccc(N=Nc2ccc(S(=O)(=O)O)cc2)cc1 ... middle level
CN(C)c1ccc(N=Nc2ccc(S(=O)(=O)O)cc2)cc1 ... middle level
CCc1ccc(O)c(N=Nc2ccc(S(=O)(=O)O)cc2)c1 ... upper level
O=S(=O)(O)c1ccc(N=Nc2ccc(O)cc2)cc1 ... middle level
Cc1ccc(O)c(N=Nc2ccc(S(=O)(=O)O)cc2)c1 ... middle level
COc1cc(N=Nc2ccc(S(=O)(=O)O)cc2)ccc1O ... lower level
